These data points were gathered from PubChem BioAssay.

List of inhibition values.
experiment: inhibitors of TNFa-induced NFkB p65 translocation, primary screen, imaging, HUVEC, MLSMR starter and 10KST1 sets (AID 438); conditions: HUVEC TNFa-induced p65 nuclear translocation; at 2 µM, stronger effect = higher value, 0% TNFa-plus-vehicle, 100% no-TNFa wells;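 note: compound added about 3h40 before a 20 min TNFalpha stimulation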;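 for inhibition: signal is the nuclear over cytoplasmic p65 intensity ratio per well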
Entry rule: numbers only, all in %.

> print(dat)
                                   compound  experimental.value
1                 Cc1nnc(NC(=O)c2ccccc2F)s1                   6
2  CN/C=C1\C(=O)C(C)(C)Oc2ccc3ccc(=O)oc3c21               -12.4
3  Clc1ccc(Cl)c(-c2nn3c(COc4ccccc4)nnc3s2)c1                  -5
4  O=C(Nc1cc(C(F)(F)F)ccc1N1CCCC1)c1ccc2c(c1)OCO2                 6.7
5              O=C(Cc1nn[nH]n1)NCCC1=CCCCC1                 1.7

Please report inhibition for the following compound: CCOC(=O)C(NC(=O)CC)(Nc1ccc(S(=O)(=O)Nc2onc(C)c2C)cc1)C(F)(F)F (stereo not drawn) 3.4

Fill in inhibition for record CCCCOc1ccc(C(=O)Nc2ccc(N3CCN(C(=O)C(C)C)CC3)cc2)cc1 -3.3

Look up and state reported inhibition for Cc1ccc(S(=O)(=O)NCCNC(=O)C2CCCNC2=O)cc1 (stereo not drawn) -0.4

Return the recorded inhibition value; entry: CC(=O)N1C(=O)C2(Nc3ccccc3N2)c2ccccc21 -4.3

Supply reported inhibition belonging to this compound: O=C(c1ccccc1)c1ccc(N2CCNCC2)cc1 4.3

Name the recorded inhibition of the compound listed here: CC(C)(C)n1ncc2c(=O)n(CC(=O)c3ccccc3)cnc21 -1

Name the recorded inhibition of the compound listed here: CCOc1ccc2cc(C#N)c(SCC(=O)N3CCC(C)CC3)nc2c1 0.5

###

test: inhibitors of TNFa-induced NFkB p65 translocation, primary screen, imaging, HUVEC, MLSMR starter and 10KST1 sets (AID 438); conditions: HUVEC TNFa-induced p65 nuclear translocation; measured here: nuclei count (cytotoxicity indicator), at 2.08 µM;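 note: compound added about 3h40 before a 20 min TNFalpha stimulation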
Listing: cell count of selected compounds

Solved entries:
> print(dat)
                                   compound  experimental.value
1           C=Cn1c(C(=O)O)cc(CC)c1-c1ccccc1                 642
2       CCN(CC(=O)O)S(=O)(=O)c1cc(Cl)ccc1Cl                 353
3  CCOC(=O)C1=C(CC)Nc2ccccc2N=C1NC(=O)Cn1cnc2ccccc2c1=O                 529
4        CCC(=O)c1ccc(OC(=O)c2ccc(Br)o2)cc1                 354

Please list cell count recorded for the compound CCn1cc(C(=O)NCCC2=CCCCC2)c(=O)c2cc(S(=O)(=O)N(C)C)ccc21 458

Answer with the recorded cell count for the compound listed here: CCOC(=O)NC(=O)CSc1nnc(C)s1 804

Output measured cell count for this item: COc1cc(NC(=O)C2CC(c3cccc(OC)c3OC)=NO2)cc(OC)c1OC (configuration not stated) 711

Input CC1CCN(C(=O)c2cc(-c3ccc(Cl)c(Cl)c3)on2)CC1 , output reported cell count. 435

Note down cell count recorded for CC(C)COc1ccc(C(=O)OCCN2CCOCC2)cc1 211

Please list cell count recorded for the compound CN(C)c1nc(Nc2ccc(Cl)cc2)nc(OCC#N)n1 387

Give me measured cell count, please, for this compound: CCOc1ccccc1C(=O)NCCC(=O)O 326

Answer with the recorded cell count of CC1CCc2nn(CC(=O)NCc3ccc(F)cc3)cc2C1 (configuration not stated) only. 919

###

molecular target: Muscarinic acetylcholine receptor M4 (Homo sapiens) (UniProt P08173); assay: M4-linked GIRK flux change, two-sided – cell-based, HEK293 M4/GIRK, thallium flux, BTC-AM, M4 allosteric agonist project, primary screen (AID 625); conditions: at 10 µM, actives lie on both sides;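 note: thallium influx through GIRK channels coupled to M4 in HEK293 cells with BTC-AM dye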
Sequence (P08173 whole entry, looked up): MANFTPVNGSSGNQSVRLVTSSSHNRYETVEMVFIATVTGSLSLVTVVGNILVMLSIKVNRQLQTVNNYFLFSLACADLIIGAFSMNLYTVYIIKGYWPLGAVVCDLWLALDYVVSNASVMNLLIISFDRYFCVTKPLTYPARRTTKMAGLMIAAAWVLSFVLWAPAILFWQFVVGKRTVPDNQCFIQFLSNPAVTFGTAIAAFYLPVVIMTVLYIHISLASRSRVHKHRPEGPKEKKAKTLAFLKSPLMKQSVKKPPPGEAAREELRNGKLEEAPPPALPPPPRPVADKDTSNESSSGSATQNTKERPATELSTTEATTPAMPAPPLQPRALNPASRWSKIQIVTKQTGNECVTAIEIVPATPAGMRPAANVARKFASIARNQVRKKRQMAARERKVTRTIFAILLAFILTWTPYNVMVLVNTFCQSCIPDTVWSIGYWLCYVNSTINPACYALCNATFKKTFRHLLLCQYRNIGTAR
readout type: fluorescence slope
Just the number, please, no unit attached.

Retrieve fluorescence slope measured for COc1cc(=O)[nH]c(SCc2c(F)c(F)c(F)c(F)c2F)n1 and print it. 0.00944

Annotate the compound CCOc1nc2ccccc2nc1NS(=O)(=O)c1ccccc1 with its measured fluorescence slope. 0.00417

Quote fluorescence slope reported for CCc1nnc(NC(=O)c2ccc(S(=O)(=O)NC3CCCCC3)cc2)s1 please. 0.00791

Identify fluorescence slope associated with the compound Cc1c(=O)n(OCc2ccccn2)c2ccccc2[n+]1[O-] 0.00625

Specify measured fluorescence slope for CC(n1cnnn1)C12CC3CC(CC(C3)C1)C2 (stereo not drawn) . 0.00589

Quickly give me recorded fluorescence slope for CC(=O)Nc1ccc(S(=O)(=O)N2CCSC2c2ccccc2)cc1 (stereo not drawn) 0.00574

Kindly indicate its recorded fluorescence slope. Item: O=C(CSc1nc2ccccc2c(=O)n1CCC(=O)N1CCCCC1)NCc1ccccc1 0.00538

Answer with the recorded fluorescence slope of O=C(CSc1nc(-c2ccc(F)cc2)cs1)N1CCOCC1 only. 0.00525

Return value of fluorescence slope for input O=c1c2c3c(sc2n2cnnc2n1CCc1ccccc1)CCCC3 , no commentary. 0.00413

Report fluorescence slope for O=C(Cc1nn[nH]n1)NCCC1=CCCCC1 0.00606

###

biological target: Voltage-gated potassium channel subunit beta-2 (Rattus norvegicus); test: enhancers of rat Kvbeta2 NADPH turnover – biochemical, NADPH fluorescence, primary screen (AID 623); details: Recombinant KvBeta, NADPH fluorescence decrease slope, 10 min; at 10 µM; stronger effect = lower value;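 note: fluorescence intensity change per second fitted from 20 to 320 s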
Recorded NADPH fluorescence slope for the following compounds
Provide a numeric answer; units are not to be included.

Illustrative cases are given below, each with its answer.
> print(dat)
                                   compound  experimental.value
1                CCCNC(=O)c1cc(-c2ccco2)on1            -4.2e-05
2  CCN(CC)S(=O)(=O)c1ccc(C(=O)N2CCN=C2SCc2cccnc2)cc1            -1.9e-05
3  O=C(COc1ccc(S(=O)(=O)NC2CCCCC2)cc1)NCc1ccccn1            -1.8e-06
4              Cc1cc(NC(=O)c2ccc(Cl)cc2)no1             1.1e-05
5  Cc1ccc(C)c(N(CC(=O)NC2CCCC2)C(=O)CCCC(=O)Nc2ccccn2)c1            -4.4e-05

Indicate its recorded NADPH fluorescence slope; the compound in question is O=C(NC1CCCCC1NC(=O)c1ccco1)c1ccco1 (configuration not stated) -1.6e-05

Give the value of NADPH fluorescence slope reported for the following: COc1ccc(-c2c(=O)n(OCc3ccccn3)c3ccccc3[n+]2[O-])cc1OC -3.7e-09

Could you please provide reported NADPH fluorescence slope for O=C(O)CCCc1nc(-c2ccccc2)no1 ? Thanks! 1.4e-05

Look up and state reported NADPH fluorescence slope for OC(CNCCc1ccccc1)c1ccccc1 (configuration not stated) -7.3e-05

Tell me measured NADPH fluorescence slope for CCCc1[nH]nc2c1C(c1cn[nH]c1-c1ccc(F)cc1)C(C#N)=C(N)O2 (configuration not stated) please. -0.000105

Give me measured NADPH fluorescence slope, please, for this compound: O=C(C1CCCO1)N1CCc2ccccc21 (configuration not stated) 5.9e-05

In one line, give reported NADPH fluorescence slope of the entry COc1ccc(CC(=O)Nc2ccc(OC)c(NC(=O)c3ccco3)c2)cc1 . 9.4e-05

###

target: Muscarinic acetylcholine receptor M4 (Homo sapiens); experiment: M4-linked GIRK flux change, two-sided – cell-based, HEK293 M4/GIRK, thallium flux, BTC-AM, M4 allosteric agonist project, primary screen (AID 625); conditions: at 10 µM, actives lie on both sides;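 note: thallium influx through GIRK channels coupled to M4 in HEK293 cells with BTC-AM dye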
Checkbox rule: fluorescence slope lower than 0.006 = y; fluorescence slope not lower than 0.006 = n.

Use these answered entries as a reference point.
> print(dat)
                                   compound  class.name
1                       Cc1nc2cc(CO)ccc2n1C           n
2                  N#Cc1cnc2sc3ccccc3n2c1=N           y
3     Cc1cc(C)c(S(=O)(=O)N(C)CC(N)=O)c(C)c1           y
4            Cc1ccc2cc(C#N)c(N3CCCC3)nc2c1C           n
5  CC(=O)C1=C(O)C(=O)N(Cc2cccnc2)C1c1ccccc1 (centres undefined)           y
6                   N#CCSc1nc(-c2ccccc2)cs1           y

Now for another entry.
Dear colleague, could you confirm whether fluorescence slope of CCOC(=O)c1cnc(-n2nc(C)cc2C)nc1Nc1ccc(N(C)C)cc1 falls below 0.006? Thanks. y
